# ASSAYED SYSTEM: ΔCTD_Reg1 (amino acids 1 to 546 of human Regnase-1) phosphorylation by IKKβ (Homo sapiens, UniProt Q5D1E8)
# Construct: made in house; host or cells: Expi293 cells
# Sequence (Q5D1E8 1-546): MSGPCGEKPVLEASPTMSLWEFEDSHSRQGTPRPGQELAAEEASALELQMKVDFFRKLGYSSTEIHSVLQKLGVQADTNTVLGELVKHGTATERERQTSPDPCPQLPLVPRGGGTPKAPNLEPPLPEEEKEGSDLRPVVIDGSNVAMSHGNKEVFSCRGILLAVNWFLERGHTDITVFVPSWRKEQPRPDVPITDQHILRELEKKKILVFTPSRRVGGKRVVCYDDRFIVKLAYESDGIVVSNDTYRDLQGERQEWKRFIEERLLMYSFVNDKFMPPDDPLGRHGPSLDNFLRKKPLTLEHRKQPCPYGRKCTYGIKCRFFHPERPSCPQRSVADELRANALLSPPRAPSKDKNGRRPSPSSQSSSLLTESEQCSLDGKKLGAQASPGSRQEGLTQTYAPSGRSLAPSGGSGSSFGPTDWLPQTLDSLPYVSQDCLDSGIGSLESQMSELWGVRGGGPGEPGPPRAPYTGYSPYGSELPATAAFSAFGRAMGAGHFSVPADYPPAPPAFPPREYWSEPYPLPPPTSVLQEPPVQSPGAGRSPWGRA
# TEST DESCRIPTION: Regnase-1 phosphorylation inhibition by compounds (AlphaScreen), IKKβ, CTD-deficient Regnase-1
# Assay type: biochemical
# ASSAY CONDITIONS: Table 11; 2 nM Regnase-1; AlphaScreen; read-out: 50% inhibition concentration, Regnase-1 phosphorylation, ΔCTD_Reg1, IKKβ
# Method: […] Phosphorylated Regnase-1 was detected by the AlphaScreen system. After each of the above-mentioned phosphorylated Regnase-1 antibodies was added and reacted at room temperature for one hour, anti-FLAG AlphaLISA Acceptor Beads (manufactured by PerkinElmer) and Protein A AlphaScreen Donor Beads (manufactured by PerkinElmer) were added, and EnVision (manufactured by PerkinElmer) was used to measure the excited luminescence. […]
Residues, ends and D or L forms follow the SMILES beside them.
pIC50 values by entry
Quick note: pIC50 values are minus log10 of concentrations in mol/L.

MOLECULE | RECORDED RESULT
CC[C@H](C)[C@@H]1NC(=O)[C@H](CCCNC(=N)N)NC(=O)[C@H](Cc2ccc(O)cc2)NC(=O)[C@H](Cc2c[nH]c3ccccc23)NC(=O)[C@H](C)NC(=O)[C@H](CO)NC(=O)[C@H](C)NC(=O)[C@H](Cc2c[nH]cn2)NC(=O)[C@H](CCCCN)NC(=O)[C@@H](C)N(C)C(=O)C[C@@H](C(=O)N2CCCC2)NC(=O)[C@H](Cc2c[nH]c3ccccc23)NC1=O [PP3] (HELM PEPTIDE1{[C[C@H](C(=O)[*:2])N(C)[*:1]].K.H.A.S.A.W.Y.R.I.W.D.[C1CCN([*:1])C1]}$PEPTIDE1,PEPTIDE1,1:R1-12:R3$$$V2.0) | 5.08

Next up:
Form: molecule = CC[C@H](C)[C@@H]1NC(=O)[C@H](CCCCN)NC(=O)[C@H](Cc2ccccc2)NC(=O)[C@H](Cc2c[nH]c3ccccc23)NC(=O)[C@H](CO)NC(=O)[C@H](CO)NC(=O)[C@H](CC(N)=O)NC(=O)[C@@H]2CCCN2C(=O)[C@@H](C)N(C)C(=O)C[C@@H](C(=O)N2CCCC2)NC(=O)[C@H](Cc2c[nH]c3ccccc23)NC1=O [PP6] (HELM PEPTIDE1{[C[C@H](C(=O)[*:2])N(C)[*:1]].P.N.S.S.W.F.K.I.W.D.[C1CCN([*:1])C1]}$PEPTIDE1,PEPTIDE1,1:R1-11:R3$$$V2.0) ; pIC50 = 4.69
